// data source = patent US9447044B2

# System tested: hGPR120 (Homo sapiens)
# Construct: expressed in transfected cells; host or cells: CHO-K1
# Sequence (Q5NUL3 whole entry): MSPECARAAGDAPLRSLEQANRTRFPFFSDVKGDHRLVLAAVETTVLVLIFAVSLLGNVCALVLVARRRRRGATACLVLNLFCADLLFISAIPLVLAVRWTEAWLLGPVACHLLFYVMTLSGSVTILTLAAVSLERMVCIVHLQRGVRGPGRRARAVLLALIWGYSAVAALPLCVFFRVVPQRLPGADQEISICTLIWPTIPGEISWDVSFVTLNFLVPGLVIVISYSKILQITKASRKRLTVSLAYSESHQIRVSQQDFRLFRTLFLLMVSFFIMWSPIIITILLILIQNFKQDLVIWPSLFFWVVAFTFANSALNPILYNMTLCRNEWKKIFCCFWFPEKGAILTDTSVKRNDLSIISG
# Assay procedure: Measurement of activity of GPR120 agonist (cell-based assay), calcium fluorescence
# Conditions used: CHO-K1 cells expressing Ga16 and hGPR120; Calcium 5 dye fluorescence; activity class
For each record, write down the corresponding EC50.

(Q) For the molecule CCCSc1ncccc1COc1ccc(C2CC2C(=O)O)cc1F (single isomer, unassigned) [Example 119] , report EC50.
(A) < 200 nM

(Q) Entry CC(C)(C)Sc1ncccc1COc1c(F)cc(CCC(=O)O)cc1F needs its EC50 filled in; supply it.
(A) < 200 nM

(Q) Supply recorded EC50 for Cc1c(OCc2cccnc2SC2CCC2)ccc(C2CC2C(=O)O)c1C (stereo not drawn) here.
(A) > 20000 nM

(Q) Quick one: give measured EC50 for O=C(O)C1CC1c1ccc(OCc2cccnc2SCC2CC2)c(F)c1 (stereo not drawn) [Example 84]
(A) < 200 nM

(Q) Answer with reported EC50 of CCCSc1ncccc1COc1c(F)cc(CCC(=O)O)cc1F
(A) < 200 nM

(Q) Give the reported value of EC50 for this record: O=C(O)CCc1ccc(OCc2cccc(SC3CCCC3)n2)cc1F
(A) 200 to 2000 nM

(Q) Give recorded EC50. CC(C)Sc1ncccc1COc1c(F)cc(C2CC2C(=O)O)cc1F (stereo not drawn)
(A) < 200 nM

(Q) Entry O=C(O)CCc1ccc(OCc2cccnc2SC2CCC2)c(F)c1 needs its EC50 filled in; supply it.
(A) < 200 nM

(Q) Fill in reported EC50 for this entry: O=C(O)CCc1ccc(OCc2cccnc2SC2CCC2)cc1F
(A) 200 to 2000 nM
